Biological target: RSV F protein of subtype B (18537) on recombinant mKate-RSV virus (Respiratory syncytial virus subtype B …, UniProt P13843 26-574)
Assay: cell-based or functional assay
// values below are reported Neut IC50 (µg/ml) subtype B
Please provide the amount together with its unit, number first.

BINDER	RECORDED RESULT
ADI-18970 (antibody, V domains shown, full-length IgG from yeast; also called Antibody Number 318; Ab # 318) VH: QVQLQESGPRLVKPSQTLSLTCTVSGGSISSGDYYWSWIRQPPGKGLEWIGYIYYSGSTHYNPSLKSRVSMSVDTAKNQFSLKLTSVTAADTAVYYCARDIGYGDHGTGSYYYGIEDWGQGTTVTVSS VL: DIVMTQTPATLSLSPGDRATLSCRASQNIMSYLAWYQHKPGQPPRLLIYDASYRAAGIPARFSGSGSGTDFTLTISSLEPEDFAVYYCQQRTNWITFGQGTRLEIK	0.333 µg/mL
ADI-18943 (antibody, V domains shown, full-length IgG from yeast) VH: QVQLQESGPGLVKPSETLSLTCSVSGASVTSREYYWGWIRQAPGKGLQWIASIHHSPFQSDGNPSLTSRVSSSVVTSKNQLALRLSSVTAADTAVYYCAGAFWEVWTGLYSPPFDFWGQGILVTVSS VL: EIVMTQSPGTLSLSPGERATLSCWASQTVSSGYLAWYQQKPGQAPRLLIYGASTRATDIPDRFSGSGSGTGFTLTISRLEPEDLAVYYCQQYSSSPLTFGGGTKVEIK	0.043 µg/mL
ADI-18912 (antibody, V domains shown, full-length IgG from yeast) VH: EVQLVESGGGLVKPGGALRLSCAASGFSFRSYSMNWVRQAPGKGLEWVSSISSSSNYINYADSVKGRFSISRDNAKNSLYLQMNSLRAEDTAVYYCARDLLPVERGPAFDIWGQGTMVTVSS VL: SYELTQPPSVSGAPGQRVTISCTGSSSNIGAGYDVHWFQQLPGAAPKLLIYANSNRPSGVPDRFSGSKSGTSASLAITGLQAEDEADYYCQSYDSRLGGSVFGGGTKVTVL	0.061 µg/mL

Asked: Reported Neut IC50 (µg/ml) subtype B, binder ADI-18946 (antibody, V domains shown, full-length IgG from yeast) VH: QVQLVQSGGGVVQPGRSLRLSCAASGFTFSDYAMHWVRQAPGKGLEWVAIISYDANNKYYADSVKGRFTISRDNSKNTVYLQMNSLRPEDTAVYYCAKEEWLVPAYWGQGILVTVSS VL: QSVLTQPASVSGSPGQSITISCTGTSSDVGGYNYVSWYQQHPGKAPKLLIYEVSNRPSGVSNRFSGSKSGNTASLTISGLQPEDEADYYCSSYSTNSAPFGTGTKLTVL : ____
Given back: 0.227 µg/mL

Asked: Reported Neut IC50 (µg/ml) subtype B, binder ADI-18937 (antibody, V domains shown, full-length IgG from yeast; also called Antibody Number 290; Ab # 290) VH: QVQLQESGPGLVKPSQTLSLTCTVSGPSISAGDYNWNWIRQAPGKGLEWVGYIDYRGLTHYNPSLKGRLSILMDRSANQFSLELNSVTAADTAVYYCARDVGVYSGYDVFHYYGMDVWGQGTTVTVSS VL: ETTLTQSPVTLSLSPGERATLSCRASQYVRNNYLAWYQHKPGQAPRLLIYSASSRVTGTPDRFSGSGSGTDFTLTISRLEPEDFAVYYCQQYGGSPPVTFGPGTKVDIK : ____
Given back: 0.508 µg/mL
